Reference source for all entries: ChEMBL document CHEMBL1921715

target: 5-hydroxytryptamine receptor 2B (Homo sapiens, UniProt P41595); test: Inhibition of human 5HT2B receptor expressed in cos-7 cells assessed as [3H]5-HT […] after 120 mins
Sequence (P41595 whole entry): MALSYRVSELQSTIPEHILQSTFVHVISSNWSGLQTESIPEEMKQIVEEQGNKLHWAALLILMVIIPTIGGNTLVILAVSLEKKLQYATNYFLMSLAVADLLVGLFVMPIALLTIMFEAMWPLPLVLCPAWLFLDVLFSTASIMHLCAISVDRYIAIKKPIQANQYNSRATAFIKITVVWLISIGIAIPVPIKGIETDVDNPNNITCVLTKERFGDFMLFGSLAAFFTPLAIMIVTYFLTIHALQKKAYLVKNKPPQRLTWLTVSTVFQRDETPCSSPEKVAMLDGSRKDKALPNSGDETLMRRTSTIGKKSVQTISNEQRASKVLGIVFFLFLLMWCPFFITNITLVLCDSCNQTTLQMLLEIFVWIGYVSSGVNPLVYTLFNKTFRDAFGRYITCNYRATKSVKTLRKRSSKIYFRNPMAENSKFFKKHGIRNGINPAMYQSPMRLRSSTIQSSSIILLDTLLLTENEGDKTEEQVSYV
measurement.name: pIC50
Entry type: numeric. Quantity: pIC50, the -log10 of concentration in molar units.

C/C=C1\C[C@H]2CNc3c(OC)cccc3C(=O)N2C1 | 5.07
CC/C=C1\C[C@H]2CNc3c(OC)cccc3C(=O)N2C1 | 4.91

Pending compound:
Looking up `CC/C=C1\C[C@H]2CNc3ccccc3C(=O)N2C1` , I found its pIC50 recorded as 5.08

* * *

Below, each entry is listed alongside its reported pIC50.
test system: HeLa; experiment: Cytotoxicity against human HeLa cells; format: functional, cell-based
To interpret pIC50, take it as minus log10 of a concentration measured in moles per litre.

C/C=C1\C[C@H]2CNc3c(OC)cccc3C(=O)N2C1 | 3.99

Reported pIC50 for `CC/C=C1\C[C@H]2CNc3c(OC)cccc3C(=O)N2C1` was 3.97

Value of pIC50 reported for the compound `CC/C=C1\C[C@H]2CNc3ccccc3C(=O)N2C1` is 3.99
